# Test system: chloroquine-resistant and MDR clone Dd2 of P. falciparum
# assay: Antimalarial activity assay, SYBR Green I fluorescence-based method
# Assay type: cell-based, Plasmodium falciparum
# experimental_context: Plasmodium falciparum, DD2, 72 h, P. falciparum Dd2, 72 hours; read-out: Antimalarial IC50 (Dd2)
# Method: An antimalarial activity assay was carried out at the Oregon Translational Research and Drug Development Institute (OTRADI). Two strains of P. falciparum were used. […] In vitro antimalarial activity was determined by a SYBR Green I fluorescence-based method described previously by Smilkstein et al. (Smilkstein et al., Antimicrob. Agents Chemother., 2004, 48:1803-1806). […]
pIC50: −log10 of the molar value.
Answer each item with its documented pIC50.

Name the recorded pIC50 for `CC(=O)c1cccc(N[C@H]2[C@H](N)[C@](C)(NC(=O)N(C)C)[C@@](C)(O)[C@@]2(O)CO)c1` .
7.52 to 7.60

Name the recorded pIC50 for `CC(=O)c1cccc(N[C@H]2[C@H](N)[C@@](NC(=O)N(C)C)([C@H](C)O)[C@@](C)(O)[C@@]2(O)COC(=O)c2c(C)cccc2O)c1` .
~7.68

Name the recorded pIC50 for `CC(=O)c1cccc(N[C@H]2[C@H](N)[C@](C)(NC(=O)N(C)C)[C@@](C)(O)[C@@]2(O)COC(=O)c2c(C)cccc2O)c1` .
7.52 to 7.60
